Target: corticotropin releasing factor 1 receptor
Assay: cell-based or functional assay
Ends that are not written are not given here.
experimental.endpoint: CRF1R EC50

Guide cases for CRF1R EC50, answers given:
                                     binder  experimental_endpoint     result
0  ZGPPISIDLPWQLLRKMIEIEKQEKEKQQAANNRLLLDTI (C-terminal amide) [SEQ ID NO 210]             CRF1R EC50    43.5 nM
1  IVLSLDVPIGLLQILLEIEKQEKEKQQAANNRLLLDTI-NH2 [SEQ ID NO 158]             CRF1R EC50   > 100 nM
2  ZGPPISIDLPIRLLRKMIEIEKQEKEKQQAANNRLLLDTI (C-terminal amide) [SEQ ID NO 38]             CRF1R EC50  > 1000 nM
3  IVLSLDVPIGLLQILLEQARAEAAREQATTNARILARV-NH2 [SEQ ID NO 122]             CRF1R EC50    1000 nM
4  ZGPPISIDLPIVLLRKMIEIEKQEKEKQQAANNRLLLDTI (C-terminal amide) [SEQ ID NO 31]             CRF1R EC50  > 1000 nM

Report CRF1R EC50 for ZGPPISIDLPYILLRKMIEIEKQEKEKQQAANNRLLLDTI (C-terminal amide) [SEQ ID NO 204] please.
32.1 nM
